Biological target: human IL-6 (human, UniProt P05231 30-212)
Sequence (P05231 30-212 limits assumed): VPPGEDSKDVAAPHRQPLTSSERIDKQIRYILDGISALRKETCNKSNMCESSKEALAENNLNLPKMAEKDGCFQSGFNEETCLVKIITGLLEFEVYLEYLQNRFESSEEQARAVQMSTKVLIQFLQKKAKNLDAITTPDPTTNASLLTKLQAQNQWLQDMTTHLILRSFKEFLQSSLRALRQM
Experiment: SPR Biacore, supernatant, Protein A capture, 37 C
Procedure: Those four positions were selected based on their tolerance for mutations as observed in bacterial and mammalian screens. […] These cultures were centrifuged and supernatants containing secreted antibodies were harvested and diluted in HBS-EP+ running buffer (1:20 ratio). Antibodies were captured on a Protein A chip (GE) by injecting 1:20 cell supernatant dilutions at 10 μL/min for 60 seconds. […]
experimental endpoint: kon
Param answer (str): number followed by unit.

Take a look at these entries with their results.
Anti-IL-6 antibody, heavy chain S35H, G66D, L100P / light chain M32L, M50D, N52S, M88Q (antibody, IgG1, V domains shown, IgG1; variable domains only; VL is variant III) VH: EVQLVESGGGLVQPGGSLRLSCAASGFTFSPFAMHWVRQAPGKGLEWVAKISPGGSWTYYSDTVTDRFTFSLDTSKSTAYLQMNSLRAEDTAVYYCARQPWGYYALDIWGQGTLVTVSS VL: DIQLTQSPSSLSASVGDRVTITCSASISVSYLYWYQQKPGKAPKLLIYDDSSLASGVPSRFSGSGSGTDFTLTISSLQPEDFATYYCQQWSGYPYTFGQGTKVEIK
759000 M⁻¹ s⁻¹
Anti-IL-6 antibody, heavy chain S35H, G66D, L100I / light chain M32L, M50D, N52S, M88Q (antibody, IgG1, V domains shown, IgG1; variable domains only; VL is variant III) VH: EVQLVESGGGLVQPGGSLRLSCAASGFTFSPFAMHWVRQAPGKGLEWVAKISPGGSWTYYSDTVTDRFTFSLDTSKSTAYLQMNSLRAEDTAVYYCARQIWGYYALDIWGQGTLVTVSS VL: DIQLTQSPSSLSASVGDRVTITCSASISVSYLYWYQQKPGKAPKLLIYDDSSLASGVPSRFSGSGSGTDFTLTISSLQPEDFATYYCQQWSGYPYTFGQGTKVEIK
1.91e+06 M⁻¹ s⁻¹

Query: Fill in: kon of Anti-IL-6 antibody, heavy chain G66D / light chain M32L, M50D, N52S, M88Q (antibody, IgG1, V domains shown, IgG1; variable domains only; VL is variant III) VH: EVQLVESGGGLVQPGGSLRLSCAASGFTFSPFAMSWVRQAPGKGLEWVAKISPGGSWTYYSDTVTDRFTFSLDTSKSTAYLQMNSLRAEDTAVYYCARQLWGYYALDIWGQGTLVTVSS VL: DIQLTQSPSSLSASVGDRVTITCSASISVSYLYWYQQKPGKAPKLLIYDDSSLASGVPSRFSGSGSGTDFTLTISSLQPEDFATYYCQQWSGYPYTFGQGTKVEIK is ___
Response: 1.66e+06 M⁻¹ s⁻¹

Numbers sourced from patent US20240209076A1.
